# Method summary: Drug degradation in human plasma at 10 uM after 4 hrs by LC-MS/MS analysis
# Format: ADME, cell-free
# Stated conditions: read-out: Drug degradation
Readout: metabolised at 4 h, 10 µM (%)
Just the number please, in %, no unit attached.

-- ask Form field: reported metabolised at 4 h, 10 µM of CSC[C@H](O/N=C(\C(=O)N[C@@H]1C(=O)N(OS(=O)(=O)O)C1(C)C)c1csc(N)n1)c1cc(=O)c(O)cn1O
-- reply 39

***
-- ask Form field: reported metabolised at 4 h, 10 µM of CC(C)C(O/N=C(\C(=O)N[C@@H]1C(=O)N(OS(=O)(=O)O)C1(C)C)c1nsc(N)n1)c1cc(=O)c(O)cn1O (some centres undefined)
-- reply 11

-- ask Form field: reported metabolised at 4 h, 10 µM of CSCC(O/N=C(\C(=O)N[C@@H]1C(=O)N(OS(=O)(=O)O)C1(C)C)c1csc(N)n1)c1cc(=O)c(O)cn1O (some centres undefined)
-- reply 28

-- ask Form field: reported metabolised at 4 h, 10 µM of CC(C)C(O/N=C(\C(=O)N[C@@H]1C(=O)N(OS(=O)(=O)O)C1(C)C)c1nc(N)sc1Cl)c1cc(=O)c(O)cn1O (some centres undefined)
-- reply 22

-- ask Form field: reported metabolised at 4 h, 10 µM of COCC(O/N=C(\C(=O)N[C@@H]1C(=O)N(OS(=O)(=O)O)C1(C)C)c1csc(N)n1)c1cc(=O)c(O)cn1O (some centres undefined)
-- reply 57

-- ask Form field: reported metabolised at 4 h, 10 µM of CC1(C)[C@H](NC(=O)/C(=N\OC(c2cc(=O)c(O)cn2O)C2CC2)c2csc(N)n2)C(=O)N1OS(=O)(=O)O (some centres undefined)
-- reply 24

-- ask Form field: reported metabolised at 4 h, 10 µM of CC(O/N=C(\C(=O)N[C@@H]1C(=O)N(OS(=O)(=O)O)C1(C)C)c1nc(N)sc1Cl)c1cc(=O)c(O)cn1O (some centres undefined)
-- reply 20

-- ask Form field: reported metabolised at 4 h, 10 µM of CNC(=O)C(O/N=C(\C(=O)N[C@@H]1C(=O)N(OS(=O)(=O)O)C1(C)C)c1csc(N)n1)c1cc(=O)c(O)cn1O (some centres undefined)
-- reply 36

-- ask Form field: reported metabolised at 4 h, 10 µM of CC1(C)[C@H](NC(=O)/C(=N\OC(CS(C)(=O)=O)c2cc(=O)c(O)cn2O)c2csc(N)n2)C(=O)N1OS(=O)(=O)O (some centres undefined)
-- reply 34

----------
# Method summary: Volume of distribution in steady state in Sprague-Dawley rat at 1 mg/kg, iv measured up to 180 mins by LC-MS/MS analysis
# Type: ADME, organism-based
# Stated conditions: in vivo, read-out: Vdss
fulfilled means recorded Vd is 0.3 L/kg or above; not fulfilled means it is below 0.3 L/kg.

Use the examples below as a reference point.
-- ask Check the entry CC1(C)[C@H](NC(=O)/C(=N\OCc2cc(=O)c(O)cn2O)c2csc(N)n2)C(=O)N1OS(=O)(=O)O : does Vd equal or exceed 0.3 L/kg?
-- reply not fulfilled

-- ask Check the entry CC(C)C(O/N=C(\C(=O)N[C@@H]1C(=O)N(OS(=O)(=O)O)C1(C)C)c1nc(N)sc1Cl)c1cc(=O)c(O)cn1O (stereo partly specified) : does Vd equal or exceed 0.3 L/kg?
-- reply fulfilled

-- ask Check the entry CC1(C)[C@H](NC(=O)/C(=N\OC(CS(C)(=O)=O)c2cc(=O)c(O)cn2O)c2csc(N)n2)C(=O)N1OS(=O)(=O)O (stereo partly specified) : does Vd equal or exceed 0.3 L/kg?
-- reply not fulfilled

-- ask Check the entry CSCC(O/N=C(\C(=O)N[C@@H]1C(=O)N(OS(=O)(=O)O)C1(C)C)c1csc(N)n1)c1cc(=O)c(O)cn1O (stereo partly specified) : does Vd equal or exceed 0.3 L/kg?
-- reply fulfilled

In the following, a different compound is considered.
-- ask Check the entry CC(C)[C@H](O/N=C(\C(=O)N[C@@H]1C(=O)N(OS(=O)(=O)O)C1(C)C)c1csc(N)n1)c1cc(=O)c(O)cn1O : does Vd equal or exceed 0.3 L/kg?
-- reply fulfilled

----------
# System: Pseudomonas aeruginosa
# Method summary: Antibacterial activity against extended spectrum beta-lactamase IMP-4 producing multidrug resistant Pseudomonas aeruginosa clinical isolates after 18 hrs by broth microdilution method
# Assay type: functional
Readout: MIC

-- ask Form field: reported MIC of CSC[C@@H](O/N=C(\C(=O)N[C@@H]1C(=O)N(OS(=O)(=O)O)C1(C)C)c1csc(N)n1)c1cc(=O)c(O)cn1O
-- reply 1 to 8 µg/mL

-- ask Form field: reported MIC of CC(O/N=C(\C(=O)N[C@@H]1C(=O)N(OS(=O)(=O)O)C1(C)C)c1nsc(N)n1)c1cc(=O)c(O)cn1O (some centres not stated)
-- reply 0.5 to 64 µg/mL

-- ask Form field: reported MIC of CC(C)[C@H](O/N=C(\C(=O)N[C@@H]1C(=O)N(OS(=O)(=O)O)C1(C)C)c1nsc(N)n1)c1cc(=O)c(O)cn1O
-- reply 1 to 2 µg/mL

-- ask Form field: reported MIC of CSC[C@H](O/N=C(\C(=O)N[C@@H]1C(=O)N(OS(=O)(=O)O)C1(C)C)c1csc(N)n1)c1cc(=O)c(O)cn1O
-- reply 0.5 to 2 µg/mL

----------
# Method summary: in vivo
# Stated conditions: Sprague-Dawley, rat, iv, 1 mg/kg
As shown below, each of these molecules has a reported half-life value.
Remember to quote the unit after the number.

Example entries and their recorded answers appear below.
-- ask Form field: reported half-life of CC(C)C(O/N=C(\C(=O)N[C@@H]1C(=O)N(OS(=O)(=O)O)C1(C)C)c1nc(N)sc1Cl)c1cc(=O)c(O)cn1O (some centres undefined)
-- reply 90 min

-- ask Form field: reported half-life of CC(C)[C@H](O/N=C(\C(=O)N[C@@H]1C(=O)N(OS(=O)(=O)O)C1(C)C)c1csc(N)n1)c1cc(=O)c(O)cn1O
-- reply 15.6 min

-- ask Form field: reported half-life of CC1(C)[C@H](NC(=O)/C(=N\OC(CS(C)(=O)=O)c2cc(=O)c(O)cn2O)c2csc(N)n2)C(=O)N1OS(=O)(=O)O (some centres undefined)
-- reply 19.8 min

***
-- ask Form field: reported half-life of CSCC(O/N=C(\C(=O)N[C@@H]1C(=O)N(OS(=O)(=O)O)C1(C)C)c1csc(N)n1)c1cc(=O)c(O)cn1O (some centres undefined)
-- reply 15 min

----------
# Tested on: Escherichia coli
# Method summary: Antibacterial activity against extended spectrum beta-lactamases producing Escherichia coli clinical isolates after 18 hrs by broth microdilution method
# Type: functional
As shown below, each of these compounds has a reported MIC value.

-- ask Please provide the recorded MIC for CC1(C)[C@H](NC(=O)/C(=N\OC(CO)c2cc(=O)c(O)cn2O)c2csc(N)n2)C(=O)N1OS(=O)(=O)O (some centres not stated) , tested on Escherichia coli.
-- reply 0.06 to 4 µg/mL

-- ask Please provide the recorded MIC for CC(C)[C@H](O/N=C(\C(=O)N[C@@H]1C(=O)N(OS(=O)(=O)O)C1(C)C)c1csc(N)n1)c1cc(=O)c(O)cn1O , tested on Escherichia coli.
-- reply 0.06 to 0.25 µg/mL

-- ask Please provide the recorded MIC for CC1(C)[C@H](NC(=O)/C(=N\OC(c2cc(=O)c(O)cn2O)C2CC2)c2csc(N)n2)C(=O)N1OS(=O)(=O)O (some centres not stated) , tested on Escherichia coli.
-- reply 0.06 to 4 µg/mL

-- ask Please provide the recorded MIC for CC(C)[C@H](O/N=C(\C(=O)N[C@@H]1C(=O)N(OS(=O)(=O)O)C1(C)C)c1nc(N)sc1Cl)c1cc(=O)c(O)cn1O , tested on Escherichia coli.
-- reply 0.06 to 1 µg/mL

-- ask Please provide the recorded MIC for CNC(=O)C(O/N=C(\C(=O)N[C@@H]1C(=O)N(OS(=O)(=O)O)C1(C)C)c1csc(N)n1)c1cc(=O)c(O)cn1O (some centres not stated) , tested on Escherichia coli.
-- reply 0.06 to 4 µg/mL

-- ask Please provide the recorded MIC for CC(C)C(O/N=C(\C(=O)N[C@@H]1C(=O)N(OS(=O)(=O)O)C1(C)C)c1nc(N)sc1Cl)c1cc(=O)c(O)cn1O (some centres not stated) , tested on Escherichia coli.
-- reply 0.06 to 1 µg/mL

-- ask Please provide the recorded MIC for COC(=O)C(O/N=C(\C(=O)N[C@@H]1C(=O)N(OS(=O)(=O)O)C1(C)C)c1csc(N)n1)c1cc(=O)c(O)cn1O (some centres not stated) , tested on Escherichia coli.
-- reply 0.25 to 1 µg/mL

----------
# Tested on: Pseudomonas aeruginosa
# Method summary: Antibacterial activity against extended spectrum beta-lactamase IMP-4 producing multidrug resistant Pseudomonas aeruginosa clinical isolates after 18 hrs by broth microdilution method
# Format: functional
As shown below, each of these compounds has a reported MIC value.

Example entries and their recorded answers appear below.
-- ask Form field: reported MIC of C[C@@H](O)[C@H]1C(=O)N2C(C(=O)O)=C(S[C@@H]3CN[C@H](C(=O)N(C)C)C3)[C@H](C)[C@H]12
-- reply 32 to 64 µg/mL

-- ask Form field: reported MIC of CC(C)C(O/N=C(\C(=O)N[C@@H]1C(=O)N(OS(=O)(=O)O)C1(C)C)c1nsc(N)n1)c1cc(=O)c(O)cn1O (stereo not given in full)
-- reply 0.5 to 32 µg/mL

-- ask Form field: reported MIC of CC1(C)[C@H](NC(=O)/C(=N\OC(c2ccccc2)c2cc(=O)c(O)cn2O)c2csc(N)n2)C(=O)N1OS(=O)(=O)O (stereo not given in full)
-- reply 0.5 to 2 µg/mL

-- ask Form field: reported MIC of CC(C)C(O/N=C(\C(=O)N[C@@H]1C(=O)N(OS(=O)(=O)O)C1(C)C)c1csc(N)n1)c1cc(=O)c(O)cn1O (stereo not given in full)
-- reply 0.25 to 1 µg/mL

-- ask Form field: reported MIC of COCC(O/N=C(\C(=O)N[C@@H]1C(=O)N(OS(=O)(=O)O)C1(C)C)c1csc(N)n1)c1cc(=O)c(O)cn1O (stereo not given in full)
-- reply 1 to 4 µg/mL

-- ask Form field: reported MIC of COC(=O)C(O/N=C(\C(=O)N[C@@H]1C(=O)N(OS(=O)(=O)O)C1(C)C)c1csc(N)n1)c1cc(=O)c(O)cn1O (stereo not given in full)
-- reply 1 to 4 µg/mL

***
-- ask Form field: reported MIC of CC(C)OCC(O/N=C(\C(=O)N[C@@H]1C(=O)N(OS(=O)(=O)O)C1(C)C)c1csc(N)n1)c1cc(=O)c(O)cn1O (stereo not given in full)
-- reply 0.5 to 8 µg/mL
